- assayed system: HIV-1 protease (wild-type, WT) (Human immunodeficiency virus type 1 group M subtype B)
- Construct: purified HIV-1 protease (wild-type, WT)
- procedure summary: Inhibition of purified wild-type HIV-1 protease (fluorogenic substrate cleavage), Ki and % inhibition
- Assay type: biochemical
- measurement context: read-out: Ki
pKi: −log10 of the molar value.
# if value of pKi reaches 8, tag True; if it stays below, tag False

* O=C(N[C@@H](Cc1ccccc1)[C@H](O)[C@H](O)[C@H](Cc1ccccc1)NC(=O)c1cccc(O)c1)c1cccc(O)c1 [Compound 7] | False
* O=C(Nc1ccccc1C(=O)N[C@@H](Cc1ccccc1)[C@H](O)[C@H](O)[C@H](Cc1ccccc1)NC(=O)c1ccccc1NC(=O)OCc1ccccc1)OCc1ccccc1 [Compound 27] | True
* Nc1cccc(C(=O)N[C@@H](Cc2ccccc2)[C@H](O)[C@H](O)[C@H](Cc2ccccc2)NC(=O)c2cccc(N)c2)c1 [Compound 17] | True
* CC(=O)Nc1ccccc1C(=O)N[C@@H](Cc1ccccc1)[C@H](O)[C@H](O)[C@H](Cc1ccccc1)NC(=O)c1ccccc1NC(C)=O [Compound 26] | False
* O=C(N[C@@H](Cc1ccccc1)[C@@H](O)[C@H](O)[C@H](Cc1ccccc1)NC(=O)c1ccc(O)cc1)c1ccc(O)cc1 [Compound 10] | False
* Cc1ccc(O)cc1C(=O)N[C@@H](Cc1ccccc1)[C@H](O)[C@H](O)[C@H](Cc1ccccc1)NC(=O)c1cc(O)ccc1C [Compound 15] | False

###

compounds and their reported pEC50
- Tested on: HIV-1
- procedure summary: Anti-retroviral activity in CEM cells chronically infected with HIV-1 (soluble formazan assay)
- Type: cell-based
- measurement context: Human immunodeficiency virus 1, CCRF-CEM, 50% inhibition of viral activity
pEC50: −log10 of the molar value.
parameter: pEC50

- O=C(Nc1ccccc1C(=O)N[C@@H](Cc1ccccc1)C[C@H](O)[C@H](Cc1ccccc1)NC(=O)c1ccccc1NC(=O)OCc1ccccn1)OCc1ccccn1 [Compound 36]: 8.62
- O=C(Nc1ccccc1C(=O)N[C@@H](Cc1ccccc1)[C@H](O)[C@H](O)[C@H](Cc1ccccc1)NC(=O)c1ccccc1NC(=O)OCc1ccccn1)OCc1ccccn1 [Compound 34]: 8.49

###

- assayed system: HIV-1 protease (wild-type, WT) (Human immunodeficiency virus type 1 group M subtype B, UniProt P04585)
- Construct: purified HIV-1 protease (wild-type, WT)
- procedure summary: Inhibition of purified wild-type HIV-1 protease (fluorogenic substrate cleavage), Ki and % inhibition
- Type: biochemical
parameter: inhibition of HIV PR (in words)

- O=C(N[C@@H](Cc1ccccc1)[C@H](O)[C@H](O)[C@H](Cc1ccccc1)NC(=O)c1cc(=O)c2ccccc2o1)c1cc(=O)c2ccccc2o1: diminished binding
- O=C(N[C@@H](Cc1ccccc1)[C@H](O)[C@H](O)[C@H](Cc1ccccc1)NC(=O)c1cc(O)c2ccccc2n1)c1cc(O)c2ccccc2n1: diminished binding

###

- assayed system: HIV-1 protease (wild-type, WT) (Human immunodeficiency virus type 1 group M subtype B, UniProt P04585)
- Construct: purified HIV-1 protease (wild-type, WT)
- procedure summary: Inhibition of purified wild-type HIV-1 protease (fluorogenic substrate cleavage), Ki and % inhibition
- Assay type: biochemical
- measurement context: Table I; read-out: Ki
pKi: −log10 of the molar value.
parameter: pKi

• O=C(Cc1cccc(O)c1)N[C@@H](Cc1ccccc1)[C@H](O)[C@H](O)[C@H](Cc1ccccc1)NC(=O)Cc1cccc(O)c1 = 5.52
